Quick note: these are Ki numbers for system: Gonadotropin-releasing hormone receptor (Homo sapiens, UniProt P30968)
Sequence (P30968 whole entry): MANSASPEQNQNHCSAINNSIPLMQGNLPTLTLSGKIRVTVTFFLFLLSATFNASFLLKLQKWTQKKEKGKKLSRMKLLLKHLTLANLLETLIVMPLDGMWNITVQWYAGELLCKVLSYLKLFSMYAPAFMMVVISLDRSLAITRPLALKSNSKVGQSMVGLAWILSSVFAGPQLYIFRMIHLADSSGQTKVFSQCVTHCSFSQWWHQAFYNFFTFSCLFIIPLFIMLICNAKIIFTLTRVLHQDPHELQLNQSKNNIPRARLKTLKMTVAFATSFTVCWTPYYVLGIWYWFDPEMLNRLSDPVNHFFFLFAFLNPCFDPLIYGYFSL
Reply with just the number (in nM).

Answered examples (3):
1) COc1cccc(-c2c(C)n(Cc3c(F)cccc3F)c(=O)n([C@H](C)CNCC(C)C)c2=O)c1 :: 190
2) COc1cccc(-c2c(C)n(Cc3c(F)cccc3F)c(=O)n([C@@H](C)CNCc3ccccc3F)c2=O)c1 :: 550
3) COc1cccc(CNC[C@@H](C)n2c(=O)c(-c3cccc(OC)c3)c(C)n(Cc3c(F)cccc3F)c2=O)c1 :: 20

Query: API: value(readout=Ki, system=Gonadotropin-releasing hormone receptor (Homo sapiens, UniProt P30968)) for record "COc1cccc(-c2c(C)n(Cc3c(F)cccc3F)c(=O)n([C@H](C)CNCc3cccc(F)c3)c2=O)c1"
Response: 85

Query: Which Ki is reported with Gonadotropin-releasing hormone receptor (Homo sapiens, UniProt P30968) for this entry: COc1cccc(-c2c(C)n(Cc3c(F)cccc3F)c(=O)n(C3CCN(Cc4ccccc4)C3)c2=O)c1 (stereo not drawn) ?
Response: 280

Query: Record "COc1cccc(-c2c(C)n(Cc3c(F)cccc3F)c(=O)n([C@H](C)CNCc3ccccc3F)c2=O)c1" : what is its Ki with Gonadotropin-releasing hormone receptor (Homo sapiens, UniProt P30968)?
Response: 90

Query: Request: Ki, test system Gonadotropin-releasing hormone receptor (Homo sapiens, UniProt P30968), entry "COc1ccc(CNC[C@@H](C)n2c(=O)c(-c3cccc(OC)c3)c(C)n(Cc3c(F)cccc3F)c2=O)cc1"
Response: 720

Query: Gonadotropin-releasing hormone receptor (Homo sapiens, UniProt P30968) / Ki / "COc1cccc(-c2c(C)n(Cc3c(F)cccc3F)c(=O)n([C@@H](C)CNCc3ccccc3)c2=O)c1" : value?
Response: 370
